targetEntity: full-length (FL) His-MBP-Ars2 (S. pombe) (UniProt O94326)
Sequence (O94326 whole entry): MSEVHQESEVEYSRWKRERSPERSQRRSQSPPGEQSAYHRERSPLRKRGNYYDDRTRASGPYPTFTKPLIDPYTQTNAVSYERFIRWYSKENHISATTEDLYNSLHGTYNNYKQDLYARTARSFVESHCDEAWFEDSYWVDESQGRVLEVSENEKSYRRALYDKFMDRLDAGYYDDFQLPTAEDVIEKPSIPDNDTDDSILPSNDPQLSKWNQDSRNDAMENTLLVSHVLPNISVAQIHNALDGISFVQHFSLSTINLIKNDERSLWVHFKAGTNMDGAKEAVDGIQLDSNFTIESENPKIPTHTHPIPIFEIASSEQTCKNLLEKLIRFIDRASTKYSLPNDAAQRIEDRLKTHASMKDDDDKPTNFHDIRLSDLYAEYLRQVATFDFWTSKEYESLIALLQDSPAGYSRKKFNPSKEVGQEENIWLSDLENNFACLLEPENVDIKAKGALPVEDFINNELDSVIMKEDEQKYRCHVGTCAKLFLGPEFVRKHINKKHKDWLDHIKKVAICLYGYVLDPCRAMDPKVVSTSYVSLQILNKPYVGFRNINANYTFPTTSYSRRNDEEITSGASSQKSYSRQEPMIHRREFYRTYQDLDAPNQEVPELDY
protocolDescription: ITC; 25 °C, 0.4-0.8 mM Red1 injected into 30-40 µM Ars2, 20 mM Tris pH 8.0, 200 mM NaCl, one-site model
readout: Kd (µM)

- His-MBP-Red1 1-54 (domain or fragment) MSRSINLDELRKKALESKKKNEEDESNDSDKEDGEISEDDPVIDQSNSVPPMKV: 5
